All figures here come from PubChem BioAssay.

- experimental details: inhibitors of TNFa-induced NFkB p65 translocation, primary screen, imaging, HUVEC, MLSMR starter and 10KST1 sets (AID 438);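 note: compound added about 3h40 before a 20 min TNFalpha stimulation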
- measurement parameters: HUVEC TNFa-induced p65 nuclear translocation; measured here: nuclei count (cytotoxicity indicator), at 2.08 µM

- molecule: "CCOC(=O)C1CCCN(C(=O)c2sc3nc(-c4ccccc4)cn3c2C)C1 (configuration not stated)"
  cell count: 631
- molecule: "Cc1cccc2sc(NC(=O)CN(C)S(=O)(=O)c3cccs3)nc12"
  cell count: 601
- molecule: "O=C(Cn1nnc(-c2cc(Cl)ccc2-n2cnnn2)n1)N1CCCc2ccccc21"
  cell count: 574
- molecule: "Cc1[nH]nc2c1C1(C(=O)N(Cc3ccc(Cl)cc3)c3ccccc31)C(C#N)=C(N)O2 (configuration not stated)"
  cell count: 358
- molecule: "O=C(CSc1nnc2ncccn12)N1CCCCCC1"
  cell count: 673
- molecule: "CC(C)C1N=C2c3ccccc3N=C(SCc3cc(=O)n4ccccc4n3)N2C1=O (configuration not stated)"
  cell count: 646
- molecule: "CC1(C)CC(=O)C=C(NC2CCS(=O)(=O)C2)C1 (configuration not stated)"
  cell count: 624
- molecule: "CC1CCc2nn(CC(=O)NCCCN3CCOCC3)cc2C1 (configuration not stated)"
  cell count: 608
- molecule: "CS(=O)(=O)N1CCCC(C(=O)N2CCOCC2)C1 (configuration not stated)"
  cell count: 683
- molecule: "Cc1c(C(=O)OCCOC(C)C)[nH]c2c1C(=O)CC(c1ccco1)C2 (configuration not stated)"
  cell count: 482
- molecule: "O=C(NCC1CCCO1)c1cccc(N2CCCC2=O)c1 (configuration not stated)"
  cell count: 458
- molecule: "C(=C\\c1ccccc1)/CSc1nnc(-c2ccccn2)n1Cc1ccco1"
  cell count: 574
- molecule: "Cc1ccc(-c2noc(C3CCCN(C(=O)c4ccccc4)C3)n2)o1 (configuration not stated)"
  cell count: 490
- molecule: "CCc1[nH]nc2c1C(c1cccc(OC(=O)N3CCOCC3)c1)C(C#N)=C(N)O2 (configuration not stated)"
  cell count: 393
- molecule: "O=C(O)CN1C(=O)C2(OCCCO2)c2ccccc21"
  cell count: 542
- molecule: "CC(C)Cc1nnc(NC(=O)CCC(=O)N2CCOCC2)s1"
  cell count: 597
- molecule: "CCCOC(=O)c1[nH]c2c(c1C)C(=O)CC(c1cc(OC)c(OC)c(OC)c1)C2 (configuration not stated)"
  cell count: 803
- molecule: "Cc1nc2ccc(CCO)cc2s1"
  cell count: 419
- molecule: "CN(c1ccccc1C(=O)N1CCN(c2cccc(Cl)c2)CC1)S(C)(=O)=O"
  cell count: 313
- molecule: "COc1ccc(-c2nc(CS(=O)CC(=O)NCc3ccccn3)c(C)o2)cc1 (configuration not stated)"
  cell count: 518
- molecule: "Cc1nn(-c2ccc(Cl)cc2)c2sc(C(=O)N3CCN(c4ccccn4)CC3)cc12"
  cell count: 571
- molecule: "CC1CN(S(=O)(=O)c2ccc(Cl)c(C(F)(F)F)c2)CC(C)O1 (configuration not stated)"
  cell count: 390

----------
- target or system: Alpha-2C adrenergic receptor (Homo sapiens) (UniProt P18825)
- Sequence (P18825 whole entry, looked up): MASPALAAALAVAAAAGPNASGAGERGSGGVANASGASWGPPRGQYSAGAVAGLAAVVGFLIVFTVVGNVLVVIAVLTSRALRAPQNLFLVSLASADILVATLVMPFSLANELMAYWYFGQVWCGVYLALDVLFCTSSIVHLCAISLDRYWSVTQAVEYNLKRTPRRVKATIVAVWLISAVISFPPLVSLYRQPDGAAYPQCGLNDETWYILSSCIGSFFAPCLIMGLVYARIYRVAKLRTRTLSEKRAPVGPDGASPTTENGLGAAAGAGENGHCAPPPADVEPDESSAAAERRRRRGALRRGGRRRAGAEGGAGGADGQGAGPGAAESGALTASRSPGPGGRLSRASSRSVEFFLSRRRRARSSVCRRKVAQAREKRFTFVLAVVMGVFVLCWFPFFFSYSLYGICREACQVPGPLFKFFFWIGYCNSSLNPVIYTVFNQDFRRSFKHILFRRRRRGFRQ
- experimental details: compounds altering alpha2C-coupled GIRK flux – cell-based, HEK293 alpha2C/GIRK1/2, thallium flux, primary screen (AID 624);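 note: slope of fluorescence ratio to pre-addition baseline per second over 15 to 24 s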
- measurement parameters: thallium flux BTC fluorescence, at 10 µM, actives lie on both sides
Please enter YES where slope is greater than or equal to 0.006, and NO where it is lower.

- compound: "FC(F)(F)c1nnc2sc(-c3cccs3)nn12"
  target or system: "Alpha-2C adrenergic receptor (Homo sapiens) (UniProt P18825)"
  label value: "NO"
- compound: "O=C(Nc1cccc2ccccc12)N1CCOCC1"
  target or system: "Alpha-2C adrenergic receptor (Homo sapiens) (UniProt P18825)"
  label value: "YES"
- compound: "Cc1ccc(N=Cc2ccc[nH]2)c(O)c1"
  target or system: "Alpha-2C adrenergic receptor (Homo sapiens) (UniProt P18825)"
  label value: "YES"
- compound: "COc1ccccc1NC(=O)CSc1nnc(-c2ccncc2)n1CC1CCCO1 (stereo unspecified)"
  target or system: "Alpha-2C adrenergic receptor (Homo sapiens) (UniProt P18825)"
  label value: "YES"
- compound: "CCOC(=O)N(C)c1ccc(C(O)(C(F)(F)F)C(F)(F)F)cc1"
  target or system: "Alpha-2C adrenergic receptor (Homo sapiens) (UniProt P18825)"
  label value: "NO"
- compound: "COc1ccc(C2CC(c3ccco3)n3ncnc3N2)cc1 (stereo unspecified)"
  target or system: "Alpha-2C adrenergic receptor (Homo sapiens) (UniProt P18825)"
  label value: "NO"
- compound: "COc1ccc(Cl)c(NCCC(=O)O)c1"
  target or system: "Alpha-2C adrenergic receptor (Homo sapiens) (UniProt P18825)"
  label value: "NO"
